assayProcedure: Stability in medium collected from human HEK293T cells assessed as compound degradation level at 1 mM incubated up to 48 hrs at 37 degC
Type: ADME, cell-based, HEK-293T
reportedConditions: read-out: Activity
property: degraded at 48 h, 1000 µM (%)

compound | readoutNumber
Nc1ncnc2c1ncn2[C@@H]1O[C@H](COP(=O)(O)OP(=O)(O)OP(=O)(O)OC[C@H]2O[C@@H](n3cnc4c(N)ncnc43)[C@H](O)[C@@H]2O)[C@@H](O)[C@H]1O | 95
Nc1ncnc2c1ncn2[C@@H]1O[C@H](COP(=O)(O)OP(=O)(O)OP(=O)(O)OP(=O)(O)OC[C@H]2O[C@@H](n3cnc4c(N)ncnc43)[C@H](O)[C@@H]2O)[C@@H](O)[C@H]1O [DIADENOSINE TETRAPHOSPHATE] | 95

Provenance of the data: ChEMBL document CHEMBL1811807
